Cited source for all entries: BigSolDB 2.1

details: in ethyl acetate, 323.16 K
measured.endpoint: solubility (mole fraction)
Simply state the number, no unit and no words.

Q. Complete the entry with solubility (mole fraction) for c1nc[nH]n1
A. 0.0759

* * *

details: in n-propanol, 293.27 K
measured.endpoint: solubility (mole fraction)
Simply state the number, no unit and no words.

Q. Complete the entry with solubility (mole fraction) for c1nc[nH]n1
A. 0.15

* * *

settings: in ethanol, 313.21 K
measured.endpoint: solubility (mole fraction)

Q. Complete the entry with solubility (mole fraction) for c1nc[nH]n1
A. 0.253

* * *

details: in propylene glycol, 293.26 K
measured.endpoint: solubility (mole fraction)
Simply state the number, no unit and no words.

Q. Complete the entry with solubility (mole fraction) for c1nc[nH]n1
A. 0.249
